Test system: MS2 coat protein
assayMethodText: apparent Kd, MS2 coat protein; higher = weaker binding; RNA-MaP array; FMN 200 µM where present
conditionContext: designed as: OFF switch for flavin mononucleotide; no ligand
apparent Kd listing for selected sequences.
parameterMeasured: apparent Kd (nM)

| sequenceChain | assayResult |
| --- | --- |
| ACUAUACGAGGAUAUGCUGUCAGUACUCCGAGGUUAGUUUGACAUGAGGAUCACCCAUGUAGAAGGCGUUUACU | 24.8 |
| GUCGAAGCUGUACCAGUCGACGGUCAGGAUAUACAUGAGGAUCACCCAUGUGCUAUUGAUACUAUGUAGAAGGGACCCACCGCA | 10.7 |
| UUUUAACAUGAGGAUCACCCAUGUGAGGAUAUCGAAAUUUAUAUUAAUAUUAUUAUUACGAGAAGGCACAUUUU | 71.9 |
| UGGGUAAAUGUAGGAUAUCCAUAUUAAUAAUAUGGAGAAGGACAUGAGGAUCACCCAUGUACAGGGAAUUACCCAUUUCCUCUC | 80.1 |
| ACUAAUUAGUGAGGAUAUACAUAAUUUAUAACUGUAGAAGGCACAAACCUCAAUACAUGAGGAUCACCCAUGUGGUAUAUAAAU | 244 |
| UAGUAUAAGGGCAUUAAACAUGAGGAUCACCCAUGUACGAUAGAGGAUAUGCAUUUCAGUUGAGAGUAGAAGGUUAGAGAAGGG | 44.5 |
| CCAAGAAUAGGAUAUACACCGUGUCAGCUUUUAUAUAUCGCACAUGAGGAUCACCCAUGUAGAAGGGUUCUCUC | 676 |
